# Species: Macaca mulatta
# Test name: Selectivity for rhesus monkey DAT over rhesus monkey SERT
Exercise: for every item that follows, state its recorded Ratio IC50.

Entry COC(=O)[C@@H]1C2CCC(C[C@H]1c1ccc(F)cc1)S2 (stereo partly drawn) needs its Ratio IC50 filled in; supply it. > 186

Entry COC(=O)[C@@H]1C2CCC(C[C@H]1c1ccc(F)c(F)c1)[S+]2[O-] (stereo partly drawn) needs its Ratio IC50 filled in; supply it. > 775

Entry COC(=O)C1=C(c2ccc(Cl)c(F)c2)CC2CCC1S2 (stereo not drawn) needs its Ratio IC50 filled in; supply it. > 5000

* * *

Exercise: for every item that follows, state its recorded pIC50.
# Assay target: UniProtKB Q7JHP9
# Sequence (Q7JHP9 whole entry): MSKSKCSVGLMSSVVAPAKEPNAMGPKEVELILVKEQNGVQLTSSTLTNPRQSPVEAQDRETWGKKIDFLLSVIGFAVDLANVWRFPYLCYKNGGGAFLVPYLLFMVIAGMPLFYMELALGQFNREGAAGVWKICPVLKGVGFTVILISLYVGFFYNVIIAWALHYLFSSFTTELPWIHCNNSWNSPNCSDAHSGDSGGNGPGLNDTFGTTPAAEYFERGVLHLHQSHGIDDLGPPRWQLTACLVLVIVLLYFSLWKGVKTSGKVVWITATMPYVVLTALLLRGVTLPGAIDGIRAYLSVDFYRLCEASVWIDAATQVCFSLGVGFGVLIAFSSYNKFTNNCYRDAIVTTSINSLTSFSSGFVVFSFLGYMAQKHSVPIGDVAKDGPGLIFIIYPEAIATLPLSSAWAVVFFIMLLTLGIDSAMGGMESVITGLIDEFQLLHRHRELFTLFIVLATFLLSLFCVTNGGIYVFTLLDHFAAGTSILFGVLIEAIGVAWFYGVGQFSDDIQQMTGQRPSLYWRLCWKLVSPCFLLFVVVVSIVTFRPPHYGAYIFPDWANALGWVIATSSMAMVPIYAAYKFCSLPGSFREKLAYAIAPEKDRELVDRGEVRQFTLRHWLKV
Recall that pIC50 is obtained by taking minus log10 of the concentration measured in molar.

Entry COC(=O)[C@@H]1C2CCC(C[C@@H]1c1ccccc1)S2 (stereo partly drawn) needs its pIC50 filled in; supply it. 6.93

Entry COC(=O)C1=C(c2ccc(Cl)c(Cl)c2)CC2CC[C@H]1N2C needs its pIC50 filled in; supply it. 8.92

Entry COC(=O)[C@@H]1C2CCC(C[C@@H]1c1ccc(Cl)c(Cl)c1)[S+]2[O-] (stereo partly drawn) needs its pIC50 filled in; supply it. 8.28

Entry COC(=O)[C@@H]1[C@@H]2CCC(C[C@@H]1c1ccc(Cl)c(Cl)c1)S2 needs its pIC50 filled in; supply it. 7.66

Entry COC(=O)[C@@H]1[C@@H]2CCC(C[C@H]1c1ccc(Cl)c(Cl)c1)S2 needs its pIC50 filled in; supply it. 8.00

Entry COC(=O)[C@H]1[C@@H](c2ccc(Cl)c(Cl)c2)CC2CC[C@H]1S2 needs its pIC50 filled in; supply it. 8.70

Entry COC(=O)[C@@H]1C2CCC(C[C@@H]1c1ccc(F)c(F)c1)S2 (stereo partly drawn) needs its pIC50 filled in; supply it. 7.49

Entry COC(=O)[C@@H]1C2CCC(C[C@H]1c1ccc(F)c(F)c1)S2 (stereo partly drawn) needs its pIC50 filled in; supply it. 7.95

Entry COC(=O)[C@@H]1[C@H]2[C@H](O)CC(C[C@@H]1c1ccc(Cl)c(Cl)c1)N2C needs its pIC50 filled in; supply it. 9.52

Entry COC(=O)C1=C(c2ccc(Cl)c(Cl)c2)CC2CC[C@H]1S2 needs its pIC50 filled in; supply it. 8.60

Entry COC(=O)C1=C(c2ccc(Cl)c(F)c2)CC2CCC1S2 (stereo not drawn) needs its pIC50 filled in; supply it. 8.00

Entry COC(=O)[C@@H]1C2CCC(C[C@H]1c1ccc(I)cc1)S2 (stereo partly drawn) needs its pIC50 filled in; supply it. 8.05

Entry COC(=O)C1=C(c2ccc(Cl)c(Cl)c2)CC2C[C@@H](O)[C@H]1N2C needs its pIC50 filled in; supply it. 8.13
